Recorded pKd values for a group of binders are listed next.
- MEASUREMENT TARGET: FRMPD4, Q14CM0
- Sequence (Q14CM0 67-160): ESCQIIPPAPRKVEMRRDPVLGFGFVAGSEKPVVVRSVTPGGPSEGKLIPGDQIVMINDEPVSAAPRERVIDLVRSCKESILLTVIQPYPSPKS
- EXPERIMENT DESCRIPTION: holdup assay
- Set-up: key: below the threshold = too weak to quantify, mostly under pKd 3.1 to 4
- CONDITION: plain residues with an end cap or a label only (N-terminal biotin on a linker: ttds)
Give the figure by itself; no unit, no explanation.

Consider the reported pKd for these binders:
BINDER: SSIDLWETAL [SLC15A5, A6NIM6]
pKd: 5.35

BINDER: SRSRRRETAL [HPV33-E6, P06427]
pKd: 3.87

# evaluate next
Suppose we examine the binder SHSSKGETAV [FZD7, O75084] ; what pKd value has been reported? 3.52
